Assignment: determine reported inhibition for the given molecules.
Target: Sentrin-specific protease 1 (Homo sapiens) (UniProt Q9P0U3)
Sequence (whole entry): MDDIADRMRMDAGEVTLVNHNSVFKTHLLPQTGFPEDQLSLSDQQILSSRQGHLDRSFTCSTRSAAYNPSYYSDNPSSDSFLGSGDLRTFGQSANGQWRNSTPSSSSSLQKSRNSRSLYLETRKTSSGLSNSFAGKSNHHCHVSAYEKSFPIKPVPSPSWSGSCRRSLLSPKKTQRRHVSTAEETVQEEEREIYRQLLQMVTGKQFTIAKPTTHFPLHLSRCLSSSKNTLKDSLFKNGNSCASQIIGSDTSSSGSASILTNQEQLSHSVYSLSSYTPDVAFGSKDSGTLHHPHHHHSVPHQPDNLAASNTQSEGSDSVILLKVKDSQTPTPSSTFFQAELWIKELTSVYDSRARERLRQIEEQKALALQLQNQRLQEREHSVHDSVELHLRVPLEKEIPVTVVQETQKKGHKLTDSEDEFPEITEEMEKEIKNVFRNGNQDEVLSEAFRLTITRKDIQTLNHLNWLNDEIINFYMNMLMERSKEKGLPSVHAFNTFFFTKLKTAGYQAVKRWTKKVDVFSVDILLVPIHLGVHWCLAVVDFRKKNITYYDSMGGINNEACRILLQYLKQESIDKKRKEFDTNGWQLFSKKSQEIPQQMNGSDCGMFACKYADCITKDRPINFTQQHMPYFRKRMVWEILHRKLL
Assay: Inhibition of recombinant human SENP1 assessed as reduction in deSUMOylation of RanGAP1-SUMO1 at 5 uM using RanGAP1-SUMO1 as substrate preincubated for 10 mins followed by substrate addition and measured after 30 mins relative to control
Conditions: time 40.0 min
Answers are plain numbers, in %.

>  <chemicalStructure>
C[C@H]1[C@H](C)CC[C@]2(CO)CC[C@]3(C)C(=CC[C@@H]4[C@@]5(C)CC[C@H](O)C(C)(C)[C@@H]5CC[C@]43C)[C@H]12

>  <inhibition, %>
58.4

$$$$
>  <chemicalStructure>
C[C@H]1[C@H](C)CC[C@]2(C(=O)O)CC[C@]3(C)C(=CC[C@@H]4[C@@]5(C)CC[C@H](O)C(C)(C)[C@@H]5CC[C@]43C)[C@H]12

>  <inhibition, %>
87.6

$$$$

In one line, give reported inhibition of the entry "C[C@H]1[C@H](C)CC[C@]2(C(=O)O)CC[C@]3(C)C(=CC[C@@H]4[C@@]5(C)C[C@@H](O)[C@H](O)[C@@](C)(CO)[C@@H]5CC[C@]43C)[C@H]12" .
6.6
